# Test system: LOX IMVI melanoma
# Assay protocol: NCI-60 one-dose screen, 48 h (100 = growth as untreated, 0 = no growth, -100 = all killed)
# Condition notes: 10 µM
About 83,000 compounds went through this panel and 20% of them were active in at least one assay; those are over-represented in the sample as a whole.
This listing pairs compounds with measured growth.
Reported property: growth (%)

Compound	System tested	Reported measurement
O=C(NNC(=O)c1ccncc1)Nc1ccc([N+](=O)[O-])cc1	LOX IMVI melanoma	101
CC1(C)CC(=O)c2c(nc3ccc(Cl)cc3c2-c2ccccc2)C1	LOX IMVI melanoma	93.4
O=c1oc2cc(OS(=O)(=O)C3CC3)ccc2c2c1CCCCCC2	LOX IMVI melanoma	85.8
Cc1cc(OI)c(C(C)C)cc1-c1cc(C(C)C)c(OI)cc1C	LOX IMVI melanoma	93.4
C=C[C@]1(C)C=C2C(=O)[C@@]3(O)OC(=O)[C@@]4(CCCC(C)(C)[C@H]34)[C@@]2(O)CC1	LOX IMVI melanoma	-96.7
O=C(OCC1OC(n2cc(C(F)(F)F)c(=O)[nH]c2=O)CC1OC(=O)c1ccc([N+](=O)[O-])cc1)c1ccc([N+](=O)[O-])cc1 (stereo not given)	LOX IMVI melanoma	64.2
CC(C)OCc1cc(CN2CCN(c3cccc(Cl)c3)CC2)c(O)c2ncccc12	LOX IMVI melanoma	-73.3
CC(C)C[C@H](NC(=O)CCn1ccc2ccccc2c1=O)B(O)O	LOX IMVI melanoma	40.6
N/C(=N\O)c1cn(C2OC(CO)C(O)C2O)c2ncnc(N)c12 (stereo not given)	LOX IMVI melanoma	-63.2
O=C(NCCCl)c1cc(Cl)cc(Cl)c1	LOX IMVI melanoma	102

###

# System: NCI-H460 lung
# Assay protocol: NCI-60 one-dose screen, 48 h
# Condition notes: 10 µM
# Method: Growth inhibition of the NCI-H460 human Non-Small Cell Lung tumor cell line is measured as a screen for anti-cancer activity. Cells are grown in 96 well plates and exposed to the test compound for 48 hours. Compounds are tested at a single concentration, which is 10^-5 M for most compounds. The reported endpoint is percent growth (GI% or GIPRCNT), where numbers from 0 - 100% represent growth inhibition, and numbers from -100% - 0 represent cell death. […]
Compounds without any hit were thinned out: in the full panel of roughly 83,000, 20% have a hit. The source made the active and inactive calls. The calls were made as follows: active = growth percent below 10; inactive = the rest.
Labels: active, inactive

Molecule	System tested	Class assignment
Nc1cc(O)cc(O)c1	NCI-H460 lung	inactive
Brc1ccc(-c2cn3ccnc3c(-c3ccc(Br)cc3)n2)cc1	NCI-H460 lung	inactive
O=C(O)CCCN1C(=O)NC2(C1=O)c1ccccc1-c1ccccc12	NCI-H460 lung	inactive
COc1ccc(-c2nc(SCC(=O)c3ccc(Br)cc3)[nH]c(=O)c2C#N)cc1	NCI-H460 lung	inactive
COc1ccc(C(=O)n2nc(CC(=O)NCc3ccccc3)nc2N)cc1	NCI-H460 lung	inactive
c1ccc(COCC[P+](c2ccccc2)(c2ccccc2)c2ccccc2)cc1	NCI-H460 lung	active
COc1ccc(C(C)=O)cc1N1C(=O)C2C(C1=O)C1(c3ccccc3)C(=O)C2(c2ccccc2)C(c2ccc(C)cc2)=C1c1ccc(C)cc1 (centres undefined)	NCI-H460 lung	active
COc1cc(C2=Nc3c/c(=C\c4c(O)[nH]c5ccc(Cl)cc45)ccc3=N2)cc(OC)c1OC	NCI-H460 lung	active
COc1ccc(-c2nnc(COc3ccc(NC(=O)Nc4ccccc4)cc3F)o2)cc1	NCI-H460 lung	inactive
COC(=O)[C@]12CC[C@@H](C)[C@H](C)[C@@H]1C1=CC[C@@H]3[C@@]4(C)C[C@@H](O)[C@H](O)[C@@](C)(CO)[C@@H]4[C@H](O)C[C@@]3(C)[C@]1(C)CC2	NCI-H460 lung	active
CC(=O)Oc1c(C)c(C)c2c(c1C)CCC(C)(CC(=O)OCCCCCCCCCCC[P+](c1ccccc1)(c1ccccc1)c1ccccc1)O2 (centres undefined)	NCI-H460 lung	active
C/C(=N\NC(=O)c1sc(=S)n(C)c1N)c1cc2ccccc2o1	NCI-H460 lung	inactive
N#Cc1c(-c2ccccc2)nc(SCC(=O)N2CCOCC2)[nH]c1=O	NCI-H460 lung	inactive
O=C(c1ccccc1)C(Sc1ccccc1)c1ccccc1 (centres undefined)	NCI-H460 lung	inactive
C(=C\c1nc2ccccc2s1)/c1ccc(N2CCOCC2)s1	NCI-H460 lung	inactive
COC1OC2COC(c3ccccc3)OC2C(=O)C1NC(=O)c1ccccc1 (centres undefined)	NCI-H460 lung	inactive
COc1ccc(NC(=O)CCn2cnc3c(cc(-c4ccccc4)n3-c3ccccc3)c2=O)cc1	NCI-H460 lung	inactive
COc1cc(Cn2c(-c3ccccc3)cc3c2-c2oncc2CC3)cc(OC)c1	NCI-H460 lung	active
C=C1C(=O)O[C@H]2[C@H]1CC/C(COC(=O)OCCCCCOC(=O)OC/C1=C/CC[C@@]3(C)O[C@H]3[C@H]3OC(=O)C(=C)[C@@H]3CC1)=C\CC[C@@]1(C)O[C@@H]21	NCI-H460 lung	active
